# protocol_summary: Dynamic Vapor Sorption Analysis (DVS)
# Assay type: physicochemical
# run_conditions: text statement
Structures can show the parent of a compound that is named as a salt.
measure: hygroscopicity in words

[[record]]
compound = "COC(=O)NCCCn1nc([C@@H](C)N(C(=O)[C@H]2CNCCO2)C2CC2)c2ccc(C)nc21 [morpholine derivative tartrate crystal form B]"
measure = "hygroscopicity in words"
observed_value = "relatively hydroscopic"

[[record]]
compound = "COC(=O)NCCCn1nc([C@@H](C)N(C(=O)[C@H]2CNCCO2)C2CC2)c2ccc(C)nc21 [morpholine derivative tartrate dihydrate]"
measure = "hygroscopicity in words"
observed_value = "relatively hydroscopic"


###

# protocol_summary: Hygroscopicity test (weight change as humidity increased from 20% to 80%)
# Format: physicochemical
# run_conditions: 20%-80% humidity
Where a name gives a salt, the structure may show the parent alone.
measure: Level (hygroscopicity)

[[record]]
compound = "COC(=O)NCCCn1nc([C@@H](C)N(C(=O)[C@H]2CNCCO2)C2CC2)c2ccc(C)nc21 [morpholine derivative tartrate crystal form B]"
measure = "Level (hygroscopicity)"
observed_value = "easy"

[[record]]
compound = "COC(=O)NCCCn1nc([C@@H](C)N(C(=O)[C@H]2CNCCO2)C2CC2)c2ccc(C)nc21 [morpholine derivative tartrate dihydrate]"
measure = "Level (hygroscopicity)"
observed_value = "easy"

[[record]]
compound = "COC(=O)NCCCn1nc([C@@H](C)N(C(=O)[C@H]2CNCCO2)C2CC2)c2ccc(C)nc21 [morpholine derivative tartrate crystal form A]"
measure = "Level (hygroscopicity)"
observed_value = "difficult"

[[record]]
compound = "COC(=O)NCCCn1nc([C@@H](C)N(C(=O)[C@H]2CNCCO2)C2CC2)c2ccc(C)nc21 [morpholine derivative hydrochloride]"
measure = "Level (hygroscopicity)"
observed_value = "Very easy"

[[record]]
compound = "COC(=O)NCCCn1nc([C@@H](C)N(C(=O)[C@H]2CNCCO2)C2CC2)c2ccc(C)nc21 [morpholine derivative free base, reference compound]"
measure = "Level (hygroscopicity)"
observed_value = "difficult"

[[record]]
compound = "COC(=O)NCCCn1nc([C@@H](C)N(C(=O)[C@H]2CNCCO2)C2CC2)c2ccc(C)nc21 [morpholine derivative naphthalene disulfonate]"
measure = "Level (hygroscopicity)"
observed_value = "Very easy"


###

# protocol_summary: Stability test under light condition
# Type: physicochemical
# run_conditions: text statement
# Procedure: The stability test was carried out on 10 mg of each of the free base, salts of the morpholine derivative in Examples 1-6 under light condition.
Where a name gives a salt, the structure may show the parent alone.
measure: stability under light condition in words

[[record]]
compound = "COC(=O)NCCCn1nc([C@@H](C)N(C(=O)[C@H]2CNCCO2)C2CC2)c2ccc(C)nc21 [morpholine derivative acetate]"
observed_value = "good thermal stability"

[[record]]
compound = "COC(=O)NCCCn1nc([C@@H](C)N(C(=O)[C@H]2CNCCO2)C2CC2)c2ccc(C)nc21 [morpholine derivative hydrochloride]"
observed_value = "good thermal stability"

[[record]]
compound = "COC(=O)NCCCn1nc([C@@H](C)N(C(=O)[C@H]2CNCCO2)C2CC2)c2ccc(C)nc21 [morpholine derivative naphthalene disulfonate]"
observed_value = "good thermal stability"


###

# protocol_summary: Stability test under light condition
# Type: physicochemical
# run_conditions: light box 4500 Lx ± 500 Lx, 25° C., 12 days, chiral HPLC vs day 0
Counter-ions that a name gives are not always drawn.
Label T when The decomposed amount (%) is strictly below 4%; at or above that, label F.

[[record]]
compound = "COC(=O)NCCCn1nc([C@@H](C)N(C(=O)[C@H]2CNCCO2)C2CC2)c2ccc(C)nc21 [morpholine derivative hydrochloride]"
class = "F"

[[record]]
compound = "COC(=O)NCCCn1nc([C@@H](C)N(C(=O)[C@H]2CNCCO2)C2CC2)c2ccc(C)nc21 [morpholine derivative tartrate crystal form A]"
class = "T"

[[record]]
compound = "COC(=O)NCCCn1nc([C@@H](C)N(C(=O)[C@H]2CNCCO2)C2CC2)c2ccc(C)nc21 [morpholine derivative free base, reference compound]"
class = "F"

[[record]]
compound = "COC(=O)NCCCn1nc([C@@H](C)N(C(=O)[C@H]2CNCCO2)C2CC2)c2ccc(C)nc21 [morpholine derivative naphthalene disulfonate]"
class = "F"

[[record]]
compound = "COC(=O)NCCCn1nc([C@@H](C)N(C(=O)[C@H]2CNCCO2)C2CC2)c2ccc(C)nc21 [morpholine derivative malate]"
class = "T"

[[record]]
compound = "COC(=O)NCCCn1nc([C@@H](C)N(C(=O)[C@H]2CNCCO2)C2CC2)c2ccc(C)nc21 [morpholine derivative tartrate crystal form B]"
class = "T"


###

# protocol_summary: Hygroscopicity test (weight change as humidity increased from 20% to 80%)
# Type: physicochemical
# run_conditions: 5 mg sample, humidity increased from 20% to 80%
Counter-ions that a name gives are not always drawn.
Listed compounds paired with reported Weight change in 20%-80% humidity
measure: Weight change in 20%-80% humidity (%)

[[record]]
compound = "COC(=O)NCCCn1nc([C@@H](C)N(C(=O)[C@H]2CNCCO2)C2CC2)c2ccc(C)nc21 [morpholine derivative hydrochloride]"
measure = "Weight change in 20%-80% humidity"
observed_value = 31.80

[[record]]
compound = "COC(=O)NCCCn1nc([C@@H](C)N(C(=O)[C@H]2CNCCO2)C2CC2)c2ccc(C)nc21 [morpholine derivative tartrate dihydrate]"
measure = "Weight change in 20%-80% humidity"
observed_value = 9.05

[[record]]
compound = "COC(=O)NCCCn1nc([C@@H](C)N(C(=O)[C@H]2CNCCO2)C2CC2)c2ccc(C)nc21 [morpholine derivative malate]"
measure = "Weight change in 20%-80% humidity"
observed_value = 1.70

[[record]]
compound = "COC(=O)NCCCn1nc([C@@H](C)N(C(=O)[C@H]2CNCCO2)C2CC2)c2ccc(C)nc21 [morpholine derivative tartrate crystal form A]"
measure = "Weight change in 20%-80% humidity"
observed_value = 1.50

[[record]]
compound = "COC(=O)NCCCn1nc([C@@H](C)N(C(=O)[C@H]2CNCCO2)C2CC2)c2ccc(C)nc21 [morpholine derivative tartrate crystal form B]"
measure = "Weight change in 20%-80% humidity"
observed_value = 6.58

[[record]]
compound = "COC(=O)NCCCn1nc([C@@H](C)N(C(=O)[C@H]2CNCCO2)C2CC2)c2ccc(C)nc21 [morpholine derivative acetate]"
measure = "Weight change in 20%-80% humidity"
observed_value = 21.30


###

# protocol_summary: Solubility test in pure water
# Type: physicochemical
# run_conditions: summary statement in description
Structures can show the parent of a compound that is named as a salt.
Listed compounds paired with reported water solubility
measure: water solubility

[[record]]
compound = "COC(=O)NCCCn1nc([C@@H](C)N(C(=O)[C@H]2CNCCO2)C2CC2)c2ccc(C)nc21 [morpholine derivative malate]"
observed_value = "~100 mg/mL"

[[record]]
compound = "COC(=O)NCCCn1nc([C@@H](C)N(C(=O)[C@H]2CNCCO2)C2CC2)c2ccc(C)nc21 [morpholine derivative tartrate]"
observed_value = "50 to 300 mg/mL"

[[record]]
compound = "COC(=O)NCCCn1nc([C@@H](C)N(C(=O)[C@H]2CNCCO2)C2CC2)c2ccc(C)nc21 [morpholine derivative acetate]"
observed_value = "150 to 300 mg/mL"

[[record]]
compound = "COC(=O)NCCCn1nc([C@@H](C)N(C(=O)[C@H]2CNCCO2)C2CC2)c2ccc(C)nc21 [morpholine derivative hydrochloride]"
observed_value = "> 500 mg/mL"

[[record]]
compound = "COC(=O)NCCCn1nc([C@@H](C)N(C(=O)[C@H]2CNCCO2)C2CC2)c2ccc(C)nc21 [morpholine derivative naphthalene disulfonate]"
observed_value = "> 500 mg/mL"


###

# protocol_summary: Solubility test in pure water
# Assay type: physicochemical
# run_conditions: pure water, 25° C., 5 mg sample
Where a name gives a salt, the structure may show the parent alone.
measure: Solubility

[[record]]
compound = "COC(=O)NCCCn1nc([C@@H](C)N(C(=O)[C@H]2CNCCO2)C2CC2)c2ccc(C)nc21 [morpholine derivative hydrochloride]"
observed_value = ">500 mg/mL"

[[record]]
compound = "COC(=O)NCCCn1nc([C@@H](C)N(C(=O)[C@H]2CNCCO2)C2CC2)c2ccc(C)nc21 [morpholine derivative acetate]"
observed_value = "150 to 300 mg/mL"

[[record]]
compound = "COC(=O)NCCCn1nc([C@@H](C)N(C(=O)[C@H]2CNCCO2)C2CC2)c2ccc(C)nc21 [morpholine derivative tartrate crystal form B]"
observed_value = "150 to 300 mg/mL"

[[record]]
compound = "COC(=O)NCCCn1nc([C@@H](C)N(C(=O)[C@H]2CNCCO2)C2CC2)c2ccc(C)nc21 [morpholine derivative naphthalene disulfonate]"
observed_value = ">500 mg/mL"

[[record]]
compound = "COC(=O)NCCCn1nc([C@@H](C)N(C(=O)[C@H]2CNCCO2)C2CC2)c2ccc(C)nc21 [morpholine derivative malate]"
observed_value = "100 mg/mL"

[[record]]
compound = "COC(=O)NCCCn1nc([C@@H](C)N(C(=O)[C@H]2CNCCO2)C2CC2)c2ccc(C)nc21 [morpholine derivative tartrate dihydrate]"
observed_value = "100 mg/mL"

[[record]]
compound = "COC(=O)NCCCn1nc([C@@H](C)N(C(=O)[C@H]2CNCCO2)C2CC2)c2ccc(C)nc21 [morpholine derivative free base, reference compound]"
observed_value = "5 to 10 mg/mL"

[[record]]
compound = "COC(=O)NCCCn1nc([C@@H](C)N(C(=O)[C@H]2CNCCO2)C2CC2)c2ccc(C)nc21 [morpholine derivative tartrate crystal form A]"
observed_value = "100 mg/mL"

